Documented Ki across a set of compounds
Target: GPR54 (Homo sapiens, UniProt Q969F8)
Construct: expressed in transfected cells; host or cells: CHO cells, membranes
Sequence (Q969F8 whole entry): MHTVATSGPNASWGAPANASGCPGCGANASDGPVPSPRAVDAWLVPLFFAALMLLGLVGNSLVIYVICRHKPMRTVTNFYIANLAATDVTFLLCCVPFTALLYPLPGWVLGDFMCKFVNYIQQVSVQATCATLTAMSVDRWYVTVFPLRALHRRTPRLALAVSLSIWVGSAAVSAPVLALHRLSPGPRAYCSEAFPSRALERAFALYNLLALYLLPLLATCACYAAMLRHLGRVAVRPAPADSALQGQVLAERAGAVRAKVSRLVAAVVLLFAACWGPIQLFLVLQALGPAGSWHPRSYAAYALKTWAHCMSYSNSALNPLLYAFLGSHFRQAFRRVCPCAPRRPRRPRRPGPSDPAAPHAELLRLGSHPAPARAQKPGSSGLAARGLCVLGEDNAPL
Assay: Radioligand competition binding with [125I]-Kp-10
Settings: [125I]-Kp-10; read-out: Ki ± SEM GPR54

>  <compound>
Cc1cc(O)cc(C)c1C[C@H](N)C(=O)N[C@H](CCCNC(=N)N)C(=O)N[C@H]1Cc2ccccc2CN(CCC(N)=O)C1=O [KGOP01, reference compound]

>  <units>
nM

>  <modifier>
>

>  <Ki>
10000

$$$$
>  <compound>
Cc1cc(O)cc(C)c1C[C@H](N)C(=O)N[C@H](CCCNC(=N)N)C(=O)N[C@H]1Cc2ccccc2CN(CCC(=O)N[C@@H](CCCN2CCC(Cc3ccccc3)CC2)C(=O)N[C@@H](Cc2ccccc2)C(N)=O)C1=O

>  <units>
nM

>  <modifier>
=

>  <Ki>
2000

$$$$
